Tested on: episomal HPV16 DNA in W12-20850 cells
Assay: W-12 cellular assay (episomal HPV-16 DNA, hybrid capture)
Format: cell-based, HPV16 (human papillomavirus)
Settings: Human papillomavirus 16, 96 h, four days incubation, episomal HPV-16 DNA quantified by hybrid capture, inhibition relative to untreated control cells
Method: Compounds of the current invention are believed useful in the treatment and/or prophylaxis of conditions and diseases associated with HPV infection. Activity mediated through HPV was determined using the following W-12 cellular assay. […] For the assay, W12-20850 cells were seeded into a 96 well plate-containing compound. […] The percent inhibition relative to untreated control cells was then determined. […]
assay metric: IC50 (nM)

molecule: O=C(NC1CCCc2c1[nH]c1ccc(Br)cc21)c1ccc(Cl)nc1 (centres unmarked)
target of assay: episomal HPV16 DNA in W12-20850 cells
unit annotation: nM
IC50: 24

[I] O=C(NC1CCCc2c1[nH]c1ccc(Br)cc21)c1ccc(F)cc1 (centres unmarked)
[II] O=C(NC1CCCc2c1[nH]c1ccc(Br)cc21)c1c(Cl)cccc1Cl (centres unmarked)
[III] Cn1ccc(C(=O)NC2CCCc3c2[nH]c2ccc(Cl)cc32)n1 (centres unmarked)
Reorder the items by IC50, least to greatest. Output spec: labels arranged per the requested ranking. I, III, II

* * *

tested on: episomal HPV16 DNA in W12-20850 cells; assay: W-12 cellular assay (episomal HPV-16 DNA, hybrid capture); format: cell-based, HPV16 (human papillomavirus); conditions: Human papillomavirus 16, 96 h, four days incubation, episomal HPV-16 DNA quantified by hybrid capture, inhibition relative to untreated control cells
assay metric: IC50 (nM)

Consider the reported IC50 for these compounds:
compound: O=C(NC1CCCc2c1[nH]c1ccc(Br)cc21)c1ccccc1 (stereo not drawn) [Example 14A]
assay metric: IC50
unit annotation: nM
result: 32
//
compound: Cn1nccc1C(=O)NC1CCCc2c1[nH]c1ccc(Cl)cc21 (stereo not drawn) [Example 48]
assay metric: IC50
unit annotation: nM
result: 2240
//
compound: O=C(N[C@@H]1CCCc2c1[nH]c1ccc(Cl)cc21)c1ccccn1 [Example 45B]
assay metric: IC50
unit annotation: nM
result: 5

[a] O=C(NC1CCCc2c1[nH]c1ccc(Br)cc21)c1c(F)cccc1F (stereo not drawn) [Example 52]
[b] Cc1ccc2[nH]c3c(c2c1)CCCC3NC(=O)c1ccccc1 (stereo not drawn) [Example 35]
[c] O=C(NC1CCCc2c1[nH]c1ccc(Br)cc21)c1ccccc1Cl (stereo not drawn) [Example 32]
[d] O=S(=O)(NC1CCCc2c1[nH]c1ccc(Br)cc21)c1c(F)cccc1F (stereo not drawn) [Example 54]
Descending sort on IC50 required. Output spec: labels arranged per the requested ranking. c, b, d, a
(c: 1400 nM, b: 184 nM, d: 94 nM, a: 45 nM)

* * *

test system: episomal HPV16 DNA in W12-20850 cells; test: W-12 cellular assay (episomal HPV-16 DNA, hybrid capture); type: cell-based, HPV16 (human papillomavirus); details: Human papillomavirus 16, 96 h, four days incubation, episomal HPV-16 DNA quantified by hybrid capture, inhibition relative to untreated control cells
pIC50: −log10 of the molar value.
assay metric: pIC50

Consider the reported pIC50 for these compounds:
compound: O=C(/C=C/c1ccccc1)NC1CCCc2c1[nH]c1ccc(Br)cc21 (centres unmarked) [Example 17]
target of assay: episomal HPV16 DNA in W12-20850 cells
pIC50: 6.50
//
compound: O=C(Nc1ccccc1)NC1CCCc2c1[nH]c1ccc(Br)cc21 (centres unmarked) [Example 9]
target of assay: episomal HPV16 DNA in W12-20850 cells
pIC50: 6.26

[1] O=C(Nc1ccccc1)NC1CCCc2c1[nH]c1ccc(Cl)cc21 (centres unmarked) [Example 44]
[2] O=C(NC1CCCc2c1[nH]c1ccc(Cl)cc21)c1c[nH]cn1 (centres unmarked) [Example 50]
[3] O=C(NC1CCCc2c1[nH]c1ccc(Br)cc21)c1ccc([N+](=O)[O-])cc1 (centres unmarked) [Example 22]
Descending sort on pIC50 required. Output spec: labels arranged per the requested ranking. 3, 2, 1
